# target_of_assay: FKBP52 (Homo sapiens)
# protocol_summary: Fluorescence polarization (FP) assay, binding to the FK506-binding domain of FKBP52
# condition_notes: FK506-binding domain of FKBP52 (FKBP52FK1), competition with fluorescent ligand 2b
measured_property: Ki

Examples with answers:
INSERT INTO assay_data (compound, experimental_result) VALUES
  ('C=CC1CN(CCCOC)C(=O)C2CCCC1N2S(=O)(=O)c1cc(Cl)cc(Cl)c1 (stereo in doubt)', '500 to 1000 nM'),
  ('C#CCN1C[C@H](COC)[C@H]2CCC[C@@H](C1=O)N2S(=O)(=O)c1cc(Cl)cc(C(N)=O)c1', '100 to 500 nM'),
  ('COC[C@H]1CN(Cc2cnn[nH]2)C(=O)[C@@H]2CCC[C@H]1N2S(=O)(=O)c1cc(Br)cc(Br)c1', '≤ 100 nM');

# input Look up and report measured Ki for this entry: COc1ccc(OCCN2C[C@H](C[C@H](C)O)C3CCCC(C2=O)N3S(=O)(=O)c2cc(Cl)cc(Cl)c2)cc1OC (single isomer, unassigned) [Compound D4]
# output ≤ 100 nM

###

# target_of_assay: UniProt:Q13451
# protocol_summary: Fluorescence polarization (FP) assay, binding to the FK506-binding domain of FKBP51
# condition_notes: FK506-binding domain of FKBP51 (FKBP51FK1), competition with fluorescent ligand 2b
# Experimental: In the present invention, in vitro fluorescence polarization assays with the compounds of the general formula (I) were performed to determine the binding affinities to FKBP51 and FKBP52 or to the isolated FK506-binding domains of FKBP51 and FKBP52 (Example 8). […] Example 11: Fluorescence Polarization (FP) Assays […] For fluorescence polarization assays the fluorescent ligand 2b was dissolved in HEPES (20 mm, pH 8), Triton-X100 (0.01%), at double the concentration required for the final sample. […]
pKi: −log10 of the molar value.
measured_property: pKi

INSERT INTO assay_data (compound, target_of_assay, measured_property, experimental_result) VALUES
  ('C=CC1CN(Cc2ccccn2)C(=O)C2CCCC1N2S(=O)(=O)c1ccccc1 (stereo in doubt) [Compound K13]', 'UniProt:Q13451', 'pKi', '6.00 to 6.30'),
  ('C=CC1CN(Cc2ccccn2)C(=O)C2CCCC1N2S(=O)(=O)c1cccc(F)c1 (stereo in doubt) [Compound K15]', 'UniProt:Q13451', 'pKi', '6.30 to 7.00'),
  ('O=C1[C@@H]2CCC[C@H]([C@H](CO)CN1Cc1ccccn1)N2S(=O)(=O)c1cc(Cl)cc(Cl)c1 [Compound J8]', 'UniProt:Q13451', 'pKi', '≥ 7.00'),
  ('COCCO[C@H]1CN(CCOC)C(=O)[C@@H]2CCC[C@H]1N2S(=O)(=O)c1cc(Cl)cc(Cl)c1 [Compound H2.1]', 'UniProt:Q13451', 'pKi', '6.30 to 7.00');

# input Look up and report measured pKi for this entry: O=C1[C@@H]2CCC[C@H]([C@H](CO)CN1CCCO)N2S(=O)(=O)c1cc(Cl)cc(Cl)c1 [Compound J5]
# output 6.00 to 6.30

# input Look up and report measured pKi for this entry: C#CCN1C[C@H](COC)[C@H]2CCC[C@@H](C1=O)N2S(=O)(=O)c1nc2ccccc2[nH]1 [Compound N16]
# output 6.30 to 7.00

# input Look up and report measured pKi for this entry: CC[C@H]1CN(CCOC)C(=O)[C@@H]2CCC[C@H]1N2S(=O)(=O)c1cc(Cl)cc(Cl)c1 [Compound B15]
# output ≥ 7.00

###

Test system UniProt Q02790, pKi listed for each of the compounds.
pKi: −log10 of the molar value.

Examples with answers:
INSERT INTO results (compound, experimental_result) VALUES
  ('COC[C@H]1CN(Cc2cnnn2S(=O)(=O)c2ccccc2)C(=O)[C@@H]2CCC[C@H]1N2S(=O)(=O)c1cccc(F)c1', '6.30 to 7.00'),
  ('CC[C@H]1CN(CCOC)C(=O)[C@@H]2CCC[C@H]1N2S(=O)(=O)c1cc(Cl)cc(Cl)c1', '≥ 7.00'),
  ('C=CC1CN(CC#N)C(=O)C2CCCC1N2S(=O)(=O)c1cc(Cl)cc(Cl)c1 (stereo in doubt)', '6.30 to 7.00');

# input Please look at COc1ccc(OCCN2C[C@H](CCO)[C@H]3CCC[C@@H](C2=O)N3S(=O)(=O)c2cc(Cl)cc(Cl)c2)cc1OC and tell me its recorded pKi on UniProt Q02790.
# output ≥ 7.00

# input Please look at COCC1CN(Cc2ccccn2)C(=O)C2CCCC1N2S(=O)(=O)c1cc(Cl)cc(Cl)c1 (stereo in doubt) and tell me its recorded pKi on UniProt Q02790.
# output ≥ 7.00

# input Please look at C#CCN1C[C@H](COC)[C@H]2CCC[C@@H](C1=O)N2S(=O)(=O)c1ccc(NC(C)=O)c(Cl)c1 and tell me its recorded pKi on UniProt Q02790.
# output 6.30 to 7.00

# input Please look at C=CC1CN(Cc2ccccn2)C(=O)C2CCCC1N2S(=O)(=O)c1ccc2c(c1)CCO2 (stereo in doubt) and tell me its recorded pKi on UniProt Q02790.
# output 6.00 to 6.30

###

# target_of_assay: FKBP51 (Homo sapiens, UniProt Q13451)
# Sequence (Q13451 42-130 limits assumed): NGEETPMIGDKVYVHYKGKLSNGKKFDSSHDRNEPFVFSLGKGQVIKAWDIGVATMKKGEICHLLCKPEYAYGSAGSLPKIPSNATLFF
pKi: −log10 of the molar value.
measured_property: pKi

Examples with answers:
INSERT INTO measurements (compound, target_of_assay, experimental_result) VALUES
  ('COCC1CN(Cc2ccccn2)C(=O)C2CCCC1N2S(=O)(=O)c1cc(Cl)cc(Cl)c1 (stereo in doubt)', 'FKBP51 (Homo sapiens, UniProt Q13451)', '≥ 7.00'),
  ('O=C1[C@@H]2CCC[C@H]([C@@H](C(F)F)CN1Cc1ccccn1)N2S(=O)(=O)c1cc(Cl)cc(Cl)c1', 'FKBP51 (Homo sapiens, UniProt Q13451)', '≥ 7.00'),
  ('COC[C@H]1CN(Cc2cnnn2Cc2ccccc2)C(=O)[C@@H]2CCC[C@H]1N2S(=O)(=O)c1cccc(F)c1', 'FKBP51 (Homo sapiens, UniProt Q13451)', '6.30 to 7.00'),
  ('C=CC1CN(Cc2ccccn2)C(=O)C2CCCC1N2S(=O)(=O)c1ccc2c(c1)CCO2 (stereo in doubt)', 'FKBP51 (Homo sapiens, UniProt Q13451)', '6.00 to 6.30');

# input Please look at COCCCCN1C[C@@H](CO)[C@H]2CCC[C@@H](C1=O)N2S(=O)(=O)c1cc(Cl)cc(Cl)c1 and tell me its recorded pKi on FKBP51 (Homo sapiens, UniProt Q13451).
# output 6.00 to 6.30

# input Please look at COCCCN1CC(CO)C2CCCC(C1=O)N2S(=O)(=O)c1cc(Cl)cc(Cl)c1 (stereo in doubt) and tell me its recorded pKi on FKBP51 (Homo sapiens, UniProt Q13451).
# output 6.30 to 7.00

###

Parameter: Ki. Scope: all listed entries.
# target_of_assay: UniProtKB Q02790
# Sequence (Q02790 50-138 limits assumed): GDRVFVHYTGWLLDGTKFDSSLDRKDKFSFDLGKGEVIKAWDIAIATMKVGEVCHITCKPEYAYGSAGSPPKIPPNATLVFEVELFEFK

Examples with answers:
INSERT INTO measurements (molecule, measured_property, experimental_result) VALUES
  ('C=C[C@@H]1CN(Cc2ccccn2)C(=O)[C@@H]2CCC[C@H]1N2S(=O)(=O)c1ccc2[nH]c(=O)sc2c1 [Compound K4]', 'Ki', '≤ 100 nM'),
  ('COc1ccc(OCCN2C[C@H](O)[C@H]3CCC[C@@H](C2=O)N3S(=O)(=O)c2cc(Cl)cc(Cl)c2)cc1OC [Compound H2.3]', 'Ki', '100 to 500 nM'),
  ('O=C1[C@@H]2CCC[C@H]([C@H](CO)CN1CCCO)N2S(=O)(=O)c1cc(Cl)cc(Cl)c1 [Compound J5]', 'Ki', '500 to 1000 nM'),
  ('C#CCN1CC(C=C)C2CCCC(C1=O)N2S(=O)(=O)c1cc(Cl)cc(Cl)c1 (stereo in doubt) [Compound J12]', 'Ki', '100 to 500 nM'),
  ('C#CCN1C[C@H](COC)[C@H]2CCC[C@@H](C1=O)N2S(=O)(=O)c1cccc(C(N)=O)c1 [Compound N4]', 'Ki', '100 to 500 nM');

# input Look up and report measured Ki for this entry: C#CCN1C[C@H](COC)[C@H]2CCC[C@@H](C1=O)N2S(=O)(=O)c1cccnc1 [Compound N13]
# output 500 to 1000 nM

# input Look up and report measured Ki for this entry: C=C[C@@H]1CN(CCCCOC)C(=O)[C@@H]2CCC[C@H]1N2S(=O)(=O)c1cc(Cl)cc(Cl)c1 [Compound J3]
# output 500 to 1000 nM

# input Look up and report measured Ki for this entry: C#CCN1C[C@H](COC)[C@H]2CCC[C@@H](C1=O)N2S(=O)(=O)c1cccc(C(=O)OC)c1 [Compound N10]
# output 100 to 500 nM

# input Look up and report measured Ki for this entry: CNC[C@H]1CN(CCOC)C(=O)[C@@H]2CCC[C@H]1N2S(=O)(=O)c1cc(Cl)cc(Cl)c1 [Compound B12]
# output 100 to 500 nM

# input Look up and report measured Ki for this entry: C#CCN1C[C@H](COC)[C@H]2CCC[C@@H](C1=O)N2S(=O)(=O)c1cc(Br)cc(C(N)=O)c1 [Compound N5]
# output 100 to 500 nM

# input Look up and report measured Ki for this entry: CCOCCN1C[C@H](C(O)CO)[C@H]2CCC[C@@H](C1=O)N2S(=O)(=O)c1cc(Cl)cc(Cl)c1 (stereo partly drawn) [Compound C3]
# output 100 to 500 nM

# input Look up and report measured Ki for this entry: COC[C@H]1CN(Cc2cnnn2Cc2ccccc2)C(=O)[C@@H]2CCC[C@H]1N2S(=O)(=O)c1cccc(F)c1 [Compound N30]
# output 100 to 500 nM

# input Look up and report measured Ki for this entry: COCCN1C[C@H](C(N)=O)[C@H]2CCC[C@@H](C1=O)N2S(=O)(=O)c1cc(Cl)cc(Cl)c1 [Compound B11]
# output 100 to 500 nM

# input Look up and report measured Ki for this entry: COCCN1C[C@H](C(C)(C)O)[C@H]2CCC[C@@H](C1=O)N2S(=O)(=O)c1cc(Cl)cc(Cl)c1 [Compound B3]
# output ≤ 100 nM

# input Look up and report measured Ki for this entry: C=CC1CN(Cc2ccccn2)C(=O)C2CCCC1N2S(=O)(=O)c1cc(Cl)cc(Cl)c1 (stereo in doubt) [Compound J4]
# output 100 to 500 nM

# input Look up and report measured Ki for this entry: COCO[C@H]1CNC(=O)[C@@H]2CCC[C@H]1N2S(=O)(=O)c1cc(Cl)cc(Cl)c1 [Compound H2.2]
# output 500 to 1000 nM
